From: PubChem BioAssay

Assay: HepG2 cell viability effects, profiling panel, calcein-AM fluorescence, 48 h, basal (AID 1164); further: test concentration not given here
Conditions: higher = more signal
Classify as follows. Reported z-score greater than or equal to 0.06: y. Reported z-score below: n.

Solved cases below.
molecule	assigned.category
CO[C@@H]1COC(=O)[C@H](C)NC(=O)CC=C[C@@H](C)[C@H](NS(=O)(=O)c2ccc(C)cc2)COC(=O)CC=C[C@@H]1C	y
COCCOC(=O)N1C(=O)[C@@]2(c3cc(C#CCCO)ccc31)[C@H](c1ccc(OCCO)cc1)N1[C@H](c3ccccc3)[C@H](c3ccccc3)OC(=O)[C@H]1[C@@H]2C(=O)NC[C@H](O)c1ccccc1	n
CO[C@H]1COC(=O)CC=C[C@H](C)[C@@H](OC)COC(=O)CC=C[C@@H]1C	y
CC/C=C/C(=O)N(C[C@@H]1CCCO1)[C@@H]1CC(C(=O)NCCO)=C[C@H](Oc2c(I)cc(CO)cc2OC)[C@H]1O	y
CCCC=C(CCC)[C@@H](NC(=O)c1ccccc1)c1ccccc1	y

Hello, I need to know if O=C/C=C/c1ccccc1Cl has measured z-score not below 0.06. Thanks!
y

I'd appreciate it if you could say whether COc1ccc([Si](C)(C)[C@@H]2[C@@H](CCO)O[C@]3(C(=O)N(Cc4ccc(NC(=O)[C@H](C)O)cc4)c4ccccc43)[C@H]2C)cc1 has z-score at least equal to 0.06.
n

Determine whether this molecule has z-score no lower than 0.06: CC(=O)NCCCC[C@@H]1NC(=O)[C@H]2C[C@@H](C(=O)NCCCCCCN(C)C)[C@@H](c3cccc(OCCO)c3)N2C1=O
y

Assess whether reported z-score for COc1cc(Cc2cc3c(c(CCc4ccccc4)n2)[Si](C(C)C)(C(C)C)OC3)cc(OC)c1OC sits at 0.06 or higher.
n

Does COC(=O)Cn1c(C(=O)N2CCCC2)cc2c1C[C@H]1CN(C(=O)c3ccccc3)[C@@](Cc3ccccc3)(C(=O)OC)[C@@H]21 have a reported z-score of at least 0.06?
y

* * *

Assay: RPMI8226 myeloma cell viability, profiling panel, resazurin fluorescence, basal, 24 h, PK04 Diversity Set (AID 1180);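 further: RPMI8826 multiple myeloma cell line at 5000 cells per well; test concentration not given here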
Conditions: higher = more signal
For each of the compounds below, state its z-score.
Answers are plain numbers.

Here's what some known entries look like.
COC(=O)Cn1c(C(=O)N2CCCC2)cc2c1C[C@H]1CN(C(=O)c3ccccc3)[C@@](Cc3ccccc3)(C(=O)OC)[C@@H]21 -1.34
COC(=O)C[C@H]1O[C@]2(C(=O)N(C)c3ccccc32)[C@@H](C)[C@@H]1[Si](C)(C)c1ccc(OC)cc1 0.452
CC(C)C[C@@H]1NC(=O)[C@H]2C[C@@H](C(=O)NCCCCCC[N+](C)(C)C)[C@@H](c3ccc(O)cc3)N2C1=O 0.985

Now turn to the next compound.
Respond only with z-score recorded for O=C1O[C@@H](c2ccccc2)[C@@H](c2ccccc2)N2[C@@H](c3ccc(O)cc3)[C@]3(C(=O)Nc4ccc(C#CC5(O)CCCCCC5)cc43)[C@@H](C(=O)Nc3nc4ccccc4s3)[C@H]12
0.88

* * *

Test: small-molecule microarray binders of probe aDKK1, primary screen, biochemical, biotinylated probe, 635/667 nm fluorescence (AID 1099);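 further: score merges 667nm spot fluorescence with signal to noise across triplicate slides; reference of the scale not given here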
Settings: higher = more signal
measurement.kind: composite z-score
Numbers only.

Observe how each entry below is paired with its result.
compound	test.result
COC(=O)C1=CC(c2ccc(CO)cc2)=CC(C2CC2)N(Cc2sc3ccccc3c2Cl)C=C1C(=O)OC (stereo unspecified)	1.02
COc1ccc([Si](C)(C)[C@@H]2[C@@H](CC(=O)N(CCO)Cc3ccccc3)O[C@]3(C(=O)N(Cc4cccc(N5CCC5=O)c4)c4ccccc43)[C@H]2C)cc1	-0.163
[N-]=[N+]=Nc1ccccc1C[C@@]1(C(=O)N2CCOCC2)N=C(c2ccc(OCCCO)cc2)O[C@@H]1c1ccccc1N=[N+]=[N-]	1.35

Batch request: composite z-score per item, same order as input.
1. COc1cc2c(cc1OC)CN(C(=O)[C@H]1[C@@H]3C(=O)O[C@@H](c4ccccc4)[C@@H](c4ccccc4)N3[C@@H](c3ccccc3OCCO)[C@]13C(=O)Nc1ccc(C#CC4(O)CCCCCC4)cc13)CC2
2. O=C/C=C/c1ccc(/C=C/c2ccccc2)cc1
3. CO[C@H]1O[C@H](CO)[C@@H](OC(=O)CCc2ccccc2)[C@@H]2OC(=O)[C@H](Cc3cccc(Br)c3)C/C=C/C[C@@H](Cc3cccc(Br)c3)C(=O)O[C@@H]12
4. O=C1C[C@@](C(=O)NC2CC2)(c2ccc([N+](=O)[O-])cc2)[C@@H](c2ccc(CO)cc2I)N1CC12CC3CC(CC(C3)C1)C2
5. COc1ccc([Si](C)(C)[C@@H]2[C@@H](CCO)O[C@]3(C(=O)N(Cc4ccccc4)c4ccccc43)[C@H]2C)cc1
6. CCOC(=O)C1=CC[C@@H](c2ccccc2)N(S(=O)(=O)c2ccc(C)cc2)[C@H]1C

0.329
-0.287
0.385
-0.0788
-0.18
0.821

Please state, for each entry, its recorded composite z-score.
1. Cc1ccc(S[C@]2(C(=O)NC3CC3)CC(=O)N(Cc3cc(C(F)(F)F)cc(C(F)(F)F)c3)[C@@H]2c2ccc(CO)cc2)cc1
2. C=CCN1C(=O)[C@@]2(O[C@@H](CCn3cc([C@H](O)c4ccccc4)nn3)[C@H]([Si](C)(C)c3ccc(OC)cc3)[C@H]2C)c2cc(N3CCOC3=O)ccc21
3. CCOC(=O)C[C@H]1[C@H](OC(=O)c2cc3ccccc3oc2=O)[C@@H](NC(=O)c2ccc3ccccc3c2)c2cc(OCCCO)ccc2N1C(=O)c1ccc2ccccc2n1
4. COc1ccc([C@H]2C[C@H]3C(Br)=C[C@]2(OC)C(=O)[C@]32CO2)cc1

1. -0.212
2. 0.16
3. 0.0447
4. -0.0499

Give me composite z-score for each of these compounds, listed below.
1. O=C1O[C@H](c2ccccc2)[C@H](c2ccccc2)N2[C@H]1[C@@H](C(=O)Nc1nc3ccccc3s1)[C@]1(C(=O)Nc3ccc(C#CC4(O)CCCCCC4)cc31)[C@H]2c1ccc(O)cc1
2. COc1ccc([Si](C)(C)[C@H]2[C@H](CC(=O)N3Cc4ccccc4C[C@H]3CO)O[C@@]3(C(=O)N(Cc4cccc(N5CCOC5=O)c4)c4ccccc43)[C@@H]2C)cc1
3. C=CCN1C(=O)[C@]2(O[C@H](CCn3cc(CCO)nn3)[C@@H]([Si](C)(C)c3ccc(OC)cc3)[C@@H]2C)c2cc(NC(=O)c3ccc(OC)cc3)ccc21
4. CO[C@H]1COC(=O)[C@H](C)NC(=O)CC=C[C@@H](C)[C@H](NS(=O)(=O)c2ccc(C)cc2)COC(=O)[C@@H](OCc2ccccc2)C=C[C@@H]1C

0.0991
-0.158
0.717
-0.667

Below is a list of compounds. For each, state its recorded composite z-score.
1. C[C@]1(C(=O)NCCN2CCOCC2)c2ccccc2C(=O)N(Cc2ccccc2)[C@H]1c1ccc(CO)cc1
2. O=C1OCC=C[C@H]2OC34C=CCN(Cc5ccccc5)C(=O)[C@H]3N(CCO)C(=O)[C@@H]4[C@@H]12 (stereo partly specified)
3. CCCC=C(CCC)[C@@H](NC(=O)c1ccc(C(F)(F)F)cc1)c1ccccc1
4. C=CCNC(=O)[C@H]1[C@@H]2C(=O)O[C@@H](c3ccccc3)[C@@H](c3ccccc3)N2[C@@H](c2ccc(O)cc2)[C@]12C(=O)Nc1ccc(C#CCNC(N)=O)cc12

1: -0.082; 2: -0.227; 3: 0.559; 4: 0.24

Report composite z-score for every entry below.
1. C=C(CCCC)C(=O)CC[C@@H](OC(=O)c1cccnc1)c1cccc(OCCO)c1
2. COCCOC(=O)N1C(=O)[C@@]2(c3cc(C#CC4(O)CCCCCC4)ccc31)[C@H](C(=O)N1CCCCCCC1)[C@H]1C(=O)O[C@H](c3ccccc3)[C@H](c3ccccc3)N1[C@@H]2c1ccc(O)cc1
3. O=C(NCC(F)(F)F)[C@@H]1c2ccccc2C(=O)N(Cc2ccccc2Cl)[C@H]1c1ccc(CO)cc1
4. C=CCC(OC(C)=O)[C@@H]1[C@@H](N(Cc2ccc(-c3cccc(C(F)(F)F)c3)o2)C(=O)Cc2ccc(F)cc2)c2cc(OCCCO)ccc2N1C(=O)c1ccc(-c2ccccc2)cc1 (stereo partly specified)
5. CCOC(=O)C[C@H]1[C@H](OC(=O)c2ccccc2-c2ccccc2)[C@@H](NC(=O)c2ccc(-c3ccccc3)cc2)c2cc(OCCCO)ccc2N1C(=O)Cc1ccc(OC)cc1

1: -0.246; 2: 2.22; 3: 0.624; 4: -0.0567; 5: -0.394

* * *

Experiment: CREB reporter modulators under forskolin, primary screen, cell-based, PC12, CRE-LacZ reporter, forskolin-stimulated (AID 1146);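 further: PC12 cells with 6xCRE LacZ reporter stimulated by forskolin 10 µM; beta-galactosidase reporter signal reflecting CREB driven transcription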
Conditions: luminescence, 4.5 h, higher = more signal, called active from +8 up or from −8 down
Given measured z-score, output yes (1) if it is greater than or equal to -0.9 and no (0) if not.

compound	assigned.category
COCCCNC(=O)[C@@]1(Sc2ccc(C)cc2)CC(=O)N(Cc2cc(C(F)(F)F)cc(C(F)(F)F)c2)[C@@H]1c1ccc(CO)cc1I	yes (1)

Hello, I need to know if CC(C)[Si]1(C(C)C)O[C@@H](c2ccccc2)c2cc(C3CC3)nc(-c3ccc(Oc4ccccc4)cc3)c21 has measured z-score not below -0.9. Thanks!
yes (1)

I'd appreciate it if you could say whether C=CCN1C(=O)[C@@]2(Cc3ccccc3)N=C(c3ccc(OCCCO)cc3)O[C@H]2c2ccccc21 has z-score at least equal to -0.9.
no (0)

Is z-score for COC(=O)C1=CC(c2ccc(CO)cc2)=CC(c2cccs2)N(Cc2cccc(OC(F)(F)F)c2)C=C1C(=O)OC (configuration not stated) at or above -0.9?
yes (1)

Quick check: does COCCOC(=O)N1C(=O)[C@@]2(c3cc(C#CC4(O)CCCCCC4)ccc31)[C@H](C(=O)N1CCCCCCC1)[C@H]1C(=O)O[C@H](c3ccccc3)[C@H](c3ccccc3)N1[C@@H]2c1ccc(O)cc1 have z-score greater than or equal to -0.9?
no (0)

Could you tell me if the measured z-score of O=C/C=C/c1ccccc1Cl reaches -0.9 or more?
yes (1)
